test: physchem; conditions: water
valueKind: solubility

| molecule | valueKind | assayValue |
| --- | --- | --- |
| CC(c1ccccc1)c1ccc(O)cc1O (stereo not shown) | solubility | 4900 µg/mL |

====

assay: UV titration, binding constants between SC8A-12C and skincare active substances; conditions: host SC8A-12C, active substance 15 µM in deionized water, 25°C, 1:1 host-guest direct binding model
Collected Binding constants Ka values appear next to each entry.

| compound | Binding constants Ka |
| --- | --- |
| CCCCCCCCCCO[C@@H]1O[C@H](CO)[C@@H](O)[C@H](O)[C@H]1O [decyl glucoside] | 3.3±0.5×10^4 M^-1 |
| CC(C)CCC[C@@H](C)[C@H]1CC[C@H]2[C@@H]3CC=C4C[C@@H](O)CC[C@]4(C)[C@H]3CC[C@]12C | 2.3±0.5×10^5 M^-1 |
| OC[C@H]1O[C@@H](Oc2ccc(O)cc2)[C@H](O)[C@@H](O)[C@@H]1O | 4.3±0.5×10^3 M^-1 |
| O=C(O)CCCCCCCC(=O)O | 5.2±0.1×10^3 M^-1 |
| CCCCCCOC(=O)c1ccccc1C(=O)c1ccc(N(CC)CC)cc1O | 3.8±0.3×10^3 M^-1 |
| Cn1c(=O)c2c(ncn2C)n(C)c1=O | 3.2±0.8×10^3 M^-1 |
| O=C1O[C@H]([C@@H](O)CO)C(O)=C1O[C@H]1O[C@H](CO)[C@@H](O)[C@H](O)[C@H]1O [ascorbyl glucoside] | 5.2±0.3×10^3 M^-1 |
| OC[C@@H](O)[C@@H](O)[C@H](O)[C@@H](O)CO | 5.3±0.4×10^3 M^-1 |
| Nc1ccc(C(=O)OCC(O)CO)cc1 (stereo not drawn) [glyceryl p-aminobenzoate] | 2.9±0.2×10^3 M^-1 |
